B1: PPEF2 (parent)
chain: DHSGFISLDEFRQTWKLFSSHMNI

Variants of: B1
Assay: protein stability index of a GFP-peptide fusion (GPS, HEK-293T) (PSI 1-6); higher = more stable;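 note: lentivirally expressed fusions sorted by FACS into six bins by GFP to DsRed ratio, PSI derived from sequencing read proportions per bin multiplied by bin number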
Conditions: c terminus: a fixed tail appended
Mark yes for reported protein stability index of 2 or greater; mark no for anything smaller.

mutation-id	category-label
R12L	no
H21A	no
F11S	no

query: I'd appreciate it if you could say whether `I24H` has protein stability index at least equal to 2.
result: no

query: Quick check: does `E10S` have protein stability index greater than or equal to 2?
result: no

query: Could you tell me if the measured protein stability index of `L17I` reaches 2 or more?
result: yes

query: Decide: is the reported value of protein stability index for `W15A` equal to or greater than 2?
result: no

query: Does `G4I` have a reported protein stability index of at least 2?
result: yes

query: Does `F5E` have a reported protein stability index of at least 2?
result: no

query: Is protein stability index for `E10P` at or above 2?
result: yes

query: Determine whether measured protein stability index meets or exceeds 2 for `S3E`
result: yes
